Where these numbers come from: patent US8765727B2

Measured target: TYK2 (Homo sapiens (Human), UniProt P29597)
Sequence (P29597 whole entry, species assumed): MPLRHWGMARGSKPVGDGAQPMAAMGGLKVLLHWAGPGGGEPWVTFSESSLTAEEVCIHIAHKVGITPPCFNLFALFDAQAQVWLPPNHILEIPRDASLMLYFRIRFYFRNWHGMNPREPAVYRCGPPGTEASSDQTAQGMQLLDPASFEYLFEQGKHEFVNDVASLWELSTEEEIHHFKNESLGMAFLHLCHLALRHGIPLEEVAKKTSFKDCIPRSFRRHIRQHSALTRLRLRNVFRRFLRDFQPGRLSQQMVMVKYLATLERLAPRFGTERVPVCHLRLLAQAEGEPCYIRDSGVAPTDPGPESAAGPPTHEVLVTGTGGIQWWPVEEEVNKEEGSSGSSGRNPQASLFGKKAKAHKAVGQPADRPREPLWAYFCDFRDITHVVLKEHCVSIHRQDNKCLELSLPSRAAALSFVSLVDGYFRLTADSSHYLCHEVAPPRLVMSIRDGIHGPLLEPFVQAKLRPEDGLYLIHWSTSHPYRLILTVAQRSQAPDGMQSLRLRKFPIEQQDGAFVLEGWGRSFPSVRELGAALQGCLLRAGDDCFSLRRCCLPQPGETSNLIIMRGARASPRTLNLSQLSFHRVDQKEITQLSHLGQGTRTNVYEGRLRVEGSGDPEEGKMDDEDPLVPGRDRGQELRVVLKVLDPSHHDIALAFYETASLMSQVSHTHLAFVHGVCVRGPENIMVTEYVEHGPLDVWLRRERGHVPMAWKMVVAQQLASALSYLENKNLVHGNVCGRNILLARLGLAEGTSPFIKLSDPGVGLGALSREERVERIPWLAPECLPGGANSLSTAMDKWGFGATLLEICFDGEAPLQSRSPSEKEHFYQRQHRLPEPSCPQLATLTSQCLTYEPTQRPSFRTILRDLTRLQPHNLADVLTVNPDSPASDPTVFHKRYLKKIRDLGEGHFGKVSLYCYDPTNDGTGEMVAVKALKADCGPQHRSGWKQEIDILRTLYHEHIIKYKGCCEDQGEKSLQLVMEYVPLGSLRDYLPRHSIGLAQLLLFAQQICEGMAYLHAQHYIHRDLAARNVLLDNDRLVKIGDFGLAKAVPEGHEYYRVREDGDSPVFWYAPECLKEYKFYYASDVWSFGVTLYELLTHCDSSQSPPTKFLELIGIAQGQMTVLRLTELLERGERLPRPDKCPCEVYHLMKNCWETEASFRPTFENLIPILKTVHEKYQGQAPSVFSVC
Test method notes: TYK2 assay (as described by Thompson et al.)
Type: biochemical
Structures can show the parent of a compound that is named as a salt.
Would you mind telling me the reported pIC50 of each entry?
Keep it numeric: pIC50 is minus log10 of the concentration in mol/L.

Input line: Send back TYK2 (Homo sapiens (Human), UniProt P29597) pIC50 of Clc1cnc2nc1NCc1cccc(c1)OCCc1cccc(c1)N2 [Example 2, trifluoroacetate] only.
Output line: 7.46

Input line: Send back TYK2 (Homo sapiens (Human), UniProt P29597) pIC50 of Clc1cnc2nc1NCc1cccc(c1)OCCOc1cccc(c1)N2 [Example 7, trifluoroacetate] only.
Output line: 7.37

Input line: Send back TYK2 (Homo sapiens (Human), UniProt P29597) pIC50 of Clc1cnc2nc1NCc1cc(ccc1Br)OCCCc1cccc(c1)N2 [Example 14] only.
Output line: 6.52

Input line: Send back TYK2 (Homo sapiens (Human), UniProt P29597) pIC50 of Clc1cnc2nc1NCc1cccc(c1)OCCCc1cccc(c1)N2 [Example 5, trifluoroacetate] only.
Output line: 7.60

Input line: Send back TYK2 (Homo sapiens (Human), UniProt P29597) pIC50 of Clc1cnc2nc1NCCc1cccc(c1)OCCc1cccc(c1)N2 [Example 9] only.
Output line: 7.28

Input line: Send back TYK2 (Homo sapiens (Human), UniProt P29597) pIC50 of Clc1cnc2nc1NCc1cccc(c1)OCc1cccc(c1)N2 [Example 1, trifluoroacetate] only.
Output line: 6.40

Input line: Send back TYK2 (Homo sapiens (Human), UniProt P29597) pIC50 of Clc1cnc2nc1NCCCc1cccc(c1)OCc1cccc(c1)N2 [Example 10] only.
Output line: 6.63

Input line: Send back TYK2 (Homo sapiens (Human), UniProt P29597) pIC50 of Nc1ccc2cc1CCc1cncc(c1)Nc1ncc(Cl)c(n1)NC2 [Example 17] only.
Output line: 6.41

----------
Structures can show the parent of a compound that is named as a salt.
Measured parameter: pIC50
Keep it numeric: pIC50 is minus log10 of the concentration in mol/L.

Input line: Send back human JAK1 (a.a. 837-1142) catalytic domain (Homo sapiens) pIC50 of Clc1cnc2nc1NCc1cccc(c1)OCCCc1cccc(c1)N2 [Example 5, trifluoroacetate] only.
Output line: 8.38

Input line: Send back human JAK1 (a.a. 837-1142) catalytic domain (Homo sapiens) pIC50 of Clc1cnc2nc1NCc1cccc(c1)OCc1cccc(c1)N2 [Example 1, trifluoroacetate] only.
Output line: 7.29

Input line: Send back human JAK1 (a.a. 837-1142) catalytic domain (Homo sapiens) pIC50 of Clc1cnc2nc1NCc1cc(ccc1-c1ccccc1)OCCCc1cccc(c1)N2 [Example 15] only.
Output line: 7.09

----------
Measured target: human JAK3 (a.a. 781-1124) catalytic domain (Homo sapiens (Human))
Sequence (P52333 781-1124): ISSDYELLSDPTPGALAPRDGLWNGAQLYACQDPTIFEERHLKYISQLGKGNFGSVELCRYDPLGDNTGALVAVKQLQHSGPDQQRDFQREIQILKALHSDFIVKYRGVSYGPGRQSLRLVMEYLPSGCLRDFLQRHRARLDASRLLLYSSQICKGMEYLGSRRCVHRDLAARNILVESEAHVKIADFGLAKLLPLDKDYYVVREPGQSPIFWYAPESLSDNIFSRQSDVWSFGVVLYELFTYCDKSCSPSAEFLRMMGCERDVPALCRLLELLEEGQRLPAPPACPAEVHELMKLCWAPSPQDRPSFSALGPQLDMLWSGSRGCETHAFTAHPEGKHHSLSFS
Where a name gives a salt, the structure may show the parent alone.
Assign labels as follows, please: 1 for IC50 below 100 nM; 0 for IC50 equal to or exceeding 100 nM.

Input line: # check: IC50 < 100 nM for `Clc1cnc2nc1NCc1cc(ccc1-c1ccccc1)OCCCc1cccc(c1)N2`
Output line: 1

Input line: # check: IC50 < 100 nM for `Clc1cnc2nc1NCCCc1cccc(c1)OCCc1cccc(c1)N2`
Output line: 1

Input line: # check: IC50 < 100 nM for O=C(Nc1ccc2cc1CCc1cncc(c1)Nc1ncc(Cl)c(n1)NC2)c1ccccc1 [Example 18, bis(trifluoroacetate)]
Output line: 0

Input line: # check: IC50 < 100 nM for N#Cc1ccccc1S(=O)(=O)Nc1ccc2cc1CCc1cncc(c1)Nc1ncc(Cl)c(n1)NC2 [Example 19, bis(trifluoroacetate)]
Output line: 0

Input line: # check: IC50 < 100 nM for Clc1cnc2nc1NCc1cccc(c1)OCc1cccc(c1)N2 [Example 1, trifluoroacetate]
Output line: 1

Input line: # check: IC50 < 100 nM for `Clc1cnc2nc1NCCCc1cccc(c1)OCc1cccc(c1)N2`
Output line: 0

Input line: # check: IC50 < 100 nM for C[C@@H]1Nc2nc(ncc2Cl)Nc2cccc(c2)COc2cccc1c2 [Example 11, trifluoroacetate]
Output line: 0

Input line: # check: IC50 < 100 nM for Clc1cnc2nc1NCc1cccc(c1)OCCCc1cccc(c1)N2 [Example 5, trifluoroacetate]
Output line: 1

Input line: # check: IC50 < 100 nM for O=S1(=O)Nc2cccc(c2)CNc2nc(ncc2Cl)Nc2cccc1c2 [Example 3, trifluoroacetate]
Output line: 0

Input line: # check: IC50 < 100 nM for C[C@H]1Nc2nc(ncc2Cl)Nc2cccc(c2)COc2cccc1c2 [Example 6, trifluoroacetate]
Output line: 0

----------
Measured target: Recombinant Human Anaplastic Lymphoma Kinase (Homo sapiens (Human), UniProt Q9UM73)
Sequence (Q9UM73 19-1620): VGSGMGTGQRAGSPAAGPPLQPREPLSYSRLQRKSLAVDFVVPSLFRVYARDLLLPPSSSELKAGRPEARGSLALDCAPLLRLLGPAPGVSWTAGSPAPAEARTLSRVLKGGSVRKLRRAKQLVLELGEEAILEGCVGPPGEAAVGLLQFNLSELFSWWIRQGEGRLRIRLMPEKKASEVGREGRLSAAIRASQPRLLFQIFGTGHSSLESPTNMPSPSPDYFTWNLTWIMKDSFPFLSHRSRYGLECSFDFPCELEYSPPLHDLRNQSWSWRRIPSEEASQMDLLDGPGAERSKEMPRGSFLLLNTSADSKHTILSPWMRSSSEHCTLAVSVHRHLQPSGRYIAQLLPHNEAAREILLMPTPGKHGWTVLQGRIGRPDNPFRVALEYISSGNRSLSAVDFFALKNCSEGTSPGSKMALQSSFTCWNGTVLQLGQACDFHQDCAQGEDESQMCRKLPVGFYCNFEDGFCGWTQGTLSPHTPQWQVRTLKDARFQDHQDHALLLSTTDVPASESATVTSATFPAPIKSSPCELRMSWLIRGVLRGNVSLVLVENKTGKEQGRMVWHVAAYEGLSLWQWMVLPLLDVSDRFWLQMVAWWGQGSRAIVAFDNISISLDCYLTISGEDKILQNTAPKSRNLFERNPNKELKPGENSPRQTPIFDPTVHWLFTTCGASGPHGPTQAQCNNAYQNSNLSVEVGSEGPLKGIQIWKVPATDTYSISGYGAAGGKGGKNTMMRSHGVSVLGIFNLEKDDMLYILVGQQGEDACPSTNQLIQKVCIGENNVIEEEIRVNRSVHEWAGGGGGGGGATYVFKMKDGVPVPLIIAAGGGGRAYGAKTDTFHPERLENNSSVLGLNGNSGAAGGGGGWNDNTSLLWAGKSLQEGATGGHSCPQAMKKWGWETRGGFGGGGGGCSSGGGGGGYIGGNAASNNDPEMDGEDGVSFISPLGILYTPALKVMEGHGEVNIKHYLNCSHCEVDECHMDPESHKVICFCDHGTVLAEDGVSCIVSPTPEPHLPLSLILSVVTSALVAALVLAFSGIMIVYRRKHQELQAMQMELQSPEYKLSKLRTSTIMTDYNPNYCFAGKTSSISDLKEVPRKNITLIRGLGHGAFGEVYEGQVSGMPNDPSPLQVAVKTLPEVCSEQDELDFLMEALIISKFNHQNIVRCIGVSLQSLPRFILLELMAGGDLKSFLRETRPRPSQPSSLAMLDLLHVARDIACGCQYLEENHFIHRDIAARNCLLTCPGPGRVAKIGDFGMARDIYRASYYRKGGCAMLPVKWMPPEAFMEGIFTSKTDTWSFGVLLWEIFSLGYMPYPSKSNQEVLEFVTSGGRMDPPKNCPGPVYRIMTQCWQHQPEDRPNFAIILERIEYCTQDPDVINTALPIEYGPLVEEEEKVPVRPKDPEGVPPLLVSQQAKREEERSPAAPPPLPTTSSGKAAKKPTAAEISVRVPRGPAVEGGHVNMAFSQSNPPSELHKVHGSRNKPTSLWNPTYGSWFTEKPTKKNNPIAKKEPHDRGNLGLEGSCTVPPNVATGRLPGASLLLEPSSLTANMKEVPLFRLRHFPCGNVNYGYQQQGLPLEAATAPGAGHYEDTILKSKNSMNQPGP
Test method notes: ALK HTRF kinase assay
Run parameters: 90 μM ATP, 0.25 nM enzyme, 2 hours at 25° C.
pIC50: −log10 of the molar value. Counter-ions that a name gives are not always drawn.
Measured parameter: pIC50

Input line: Determine from records and report pIC50 for Clc1cnc2nc1NCCc1cccc(c1)OCCc1cccc(c1)N2 [Example 9]
Output line: 5.91

Input line: Determine from records and report pIC50 for Clc1cnc2nc1NCc1cc(Br)cc(c1)OCCCc1cccc(c1)N2 [Example 16]
Output line: 6.55

Input line: Determine from records and report pIC50 for Clc1cnc2nc1NCCCc1cccc(c1)OCc1cccc(c1)N2 [Example 10]
Output line: < 6.00

Input line: Determine from records and report pIC50 for Clc1cnc2nc1NCCc1cccc(c1)OCc1cccc(c1)N2 [Example 8]
Output line: < 5.00

Input line: Determine from records and report pIC50 for O=C(Nc1ccc2cc1CCc1cncc(c1)Nc1ncc(Cl)c(n1)NC2)c1ccccc1 [Example 18, bis(trifluoroacetate)]
Output line: < 6.00

Input line: Determine from records and report pIC50 for O=C1Nc2cccc(c2)CNc2nc(ncc2Cl)Nc2cccc1c2 [Example 4, trifluoroacetate]
Output line: < 5.00

Input line: Determine from records and report pIC50 for Clc1cnc2nc1NCc1cc(ccc1-c1ccccc1)OCCCc1cccc(c1)N2 [Example 15]
Output line: < 6.00

Input line: Determine from records and report pIC50 for Clc1cnc2nc1NCc1cc(ccc1Br)OCCCc1cccc(c1)N2 [Example 14]
Output line: 5.09

Input line: Determine from records and report pIC50 for C[C@@H]1Nc2nc(ncc2Cl)Nc2cccc(c2)COc2cccc1c2 [Example 11, trifluoroacetate]
Output line: < 5.00

Input line: Determine from records and report pIC50 for Clc1cnc2nc1NCCc1cccc(c1)OCCCc1cccc(c1)N2 [Example 12]
Output line: < 5.00

Input line: Determine from records and report pIC50 for N#Cc1ccccc1S(=O)(=O)Nc1ccc2cc1CCc1cncc(c1)Nc1ncc(Cl)c(n1)NC2 [Example 19, bis(trifluoroacetate)]
Output line: < 6.00

Input line: Determine from records and report pIC50 for Nc1ccc2cc1CCc1cncc(c1)Nc1ncc(Cl)c(n1)NC2 [Example 17]
Output line: < 6.00

Input line: Determine from records and report pIC50 for Clc1cnc2nc1NCc1cccc(c1)OCCOc1cccc(c1)N2 [Example 7, trifluoroacetate]
Output line: 5.69

Input line: Determine from records and report pIC50 for Clc1cnc2nc1NCc1cccc(c1)OCc1cccc(c1)N2 [Example 1, trifluoroacetate]
Output line: < 6.00

Input line: Determine from records and report pIC50 for Clc1cnc2nc1NCCCc1cccc(c1)OCCc1cccc(c1)N2 [Example 13]
Output line: < 5.00

Input line: Determine from records and report pIC50 for C[C@H]1Nc2nc(ncc2Cl)Nc2cccc(c2)COc2cccc1c2 [Example 6, trifluoroacetate]
Output line: < 5.00

Input line: Determine from records and report pIC50 for O=S1(=O)Nc2cccc(c2)CNc2nc(ncc2Cl)Nc2cccc1c2 [Example 3, trifluoroacetate]
Output line: < 5.00

Input line: Determine from records and report pIC50 for Clc1cnc2nc1NCc1cccc(c1)OCCc1cccc(c1)N2 [Example 2, trifluoroacetate]
Output line: 5.82

Input line: Determine from records and report pIC50 for Clc1cnc2nc1NCc1cccc(c1)OCCCc1cccc(c1)N2 [Example 5, trifluoroacetate]
Output line: 6.15

----------
Measured target: human JAK3 (a.a. 781-1124) catalytic domain (Homo sapiens (Human))
Where a name gives a salt, the structure may show the parent alone.
Assign labels as follows, please: Y for IC50 below 9 nM; N for IC50 equal to or exceeding 9 nM.

Input line: # check: IC50 < 9 nM for Clc1cnc2nc1NCCc1cccc(c1)OCCCc1cccc(c1)N2 [Example 12]
Output line: N

Input line: # check: IC50 < 9 nM for Clc1cnc2nc1NCc1cccc(c1)OCCOc1cccc(c1)N2 [Example 7, trifluoroacetate]
Output line: Y

Input line: # check: IC50 < 9 nM for Clc1cnc2nc1NCCc1cccc(c1)OCc1cccc(c1)N2 [Example 8]
Output line: N

Input line: # check: IC50 < 9 nM for O=C1Nc2cccc(c2)CNc2nc(ncc2Cl)Nc2cccc1c2 [Example 4, trifluoroacetate]
Output line: N
